Where do the numbers come from? From PubChem BioAssay (NCATS).

- study_system: Rap guanine nucleotide exchange factor 3 (Homo sapiens) (UniProt O95398)
- Sequence (O95398 whole entry, looked up): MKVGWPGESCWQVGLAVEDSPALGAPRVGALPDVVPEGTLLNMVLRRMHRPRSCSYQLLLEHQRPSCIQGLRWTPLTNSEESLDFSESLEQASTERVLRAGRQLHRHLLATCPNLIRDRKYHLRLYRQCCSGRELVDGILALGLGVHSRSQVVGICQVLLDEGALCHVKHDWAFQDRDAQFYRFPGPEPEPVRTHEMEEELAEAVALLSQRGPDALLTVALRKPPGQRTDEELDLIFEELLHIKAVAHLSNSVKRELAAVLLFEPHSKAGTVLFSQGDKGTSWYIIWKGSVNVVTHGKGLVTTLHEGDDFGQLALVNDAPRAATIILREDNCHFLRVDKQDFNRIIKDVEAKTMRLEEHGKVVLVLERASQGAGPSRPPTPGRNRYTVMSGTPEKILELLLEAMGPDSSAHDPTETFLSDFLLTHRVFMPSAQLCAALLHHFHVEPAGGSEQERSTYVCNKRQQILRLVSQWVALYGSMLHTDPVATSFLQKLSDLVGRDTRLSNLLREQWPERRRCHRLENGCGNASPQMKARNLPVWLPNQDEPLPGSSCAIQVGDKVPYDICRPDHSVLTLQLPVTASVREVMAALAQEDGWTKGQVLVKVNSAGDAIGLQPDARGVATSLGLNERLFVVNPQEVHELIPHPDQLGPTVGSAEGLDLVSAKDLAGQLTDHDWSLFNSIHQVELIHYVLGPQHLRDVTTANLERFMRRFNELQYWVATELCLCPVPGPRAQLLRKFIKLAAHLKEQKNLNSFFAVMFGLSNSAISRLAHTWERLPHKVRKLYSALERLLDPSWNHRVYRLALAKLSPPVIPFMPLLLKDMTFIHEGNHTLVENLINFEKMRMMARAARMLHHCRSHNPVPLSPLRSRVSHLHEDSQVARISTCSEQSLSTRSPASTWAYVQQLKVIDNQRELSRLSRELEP
- experiment_notes: Confirmatory qHTS for agonist of cAMP-regulated guanine nucleotide exchange factor 3 (EPAC1) (AID 1645881);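 further: EPAC1 catalysed release of BODIPY-GDP from Rap1B seen as fluorescence loss; 100% = effect of cAMP agonist control; nearly all actives have a fitted effect of over 75% in size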
- experimental_setup: EPAC1 Rap1B BODIPY-GDP exchange fluorescence; series mostly up to 154 µM
Inconclusive results are not listed. Activity calls are given as the source filed them. The call rests on the fitted dose curve; in most records, active means well fitted activation curve with a large enough effect; inconclusive means small, poorly fitted or top-dose-only effect; inactive means no such curve, though single readings can be large or run the other way.
assay_endpoint: outcome

O=C1CC2(CCCCC2)Oc2ccc(F)cc21
inactive
O=[N+]([O-])c1ccccc1O[C@@H]1O[C@H](CO)[C@H](O)[C@H](O)[C@H]1O
inactive
O=C1COc2ccc(C(=O)COC(=O)c3ccc4ccccc4n3)cc2N1
inactive
Cc1ccc(Cl)cc1N1CCN(C(=O)c2cccc3c(=O)c(C)c(-c4ccccc4)oc23)CC1
inactive
C=CCn1c(SC(F)F)nc2scc(-c3ccco3)c2c1=O
inactive
CC(C)C[C@H]1COCCS(=O)(=O)N1Cc1ccc(Cl)c(Cl)c1
inactive
O=c1ccc2c(-c3ccccc3S(=O)(=O)O)c3ccc(O)c(O)c3oc-2c1O
inactive
COc1ccc(/C=N/Nc2nnc(C)n2N)cc1OC(C)=O
inactive
Cc1ccc(C)c(-c2csc(N)c2C(=O)OC(C)C)c1
inactive
COc1cccc2cc(/C(=N/O)c3ccccc3)oc12
inactive
CC(C)CC1C(=O)N(Cc2cn(Cc3ccco3)nn2)CCS(=O)(=O)N1Cc1ccc(-c2ccc(F)cc2)cc1 (configuration not stated)
inactive
CCOC1=C2[C@@H](CN(S(=O)(=O)c3ccc(C)cc3)[C@H]2c2ccccc2Cl)[C@H]2C(=O)NC(=O)[C@H]2C1
inactive
COC(=O)c1cc(Br)c(=O)n(Cc2ccc3c(c2)OCO3)c1
inactive
CC(NC(=O)COc1ccccc1-c1ccccc1)c1ccccc1 (configuration not stated)
inactive
COc1ccc(S(=O)(=O)N2CCCC2)c(Cl)c1Cl
inactive
CCOC(=O)c1c(NC(=O)CSc2nc3ccc(C)cc3[nH]2)sc2c1CC(C)(C)NC2(C)C
inactive
Clc1ccc(-c2nnc(-c3ccco3)nc2N2CCCCC2)cc1
inactive
O=C1CCCC2=C1CC(C(=O)OCc1ccccc1)C(=O)N2Cc1ccccc1 (configuration not stated)
inactive
O=C1OC(c2ccccc2)(c2cc(Br)c(O)c(Br)c2)c2ccccc21 (configuration not stated)
inactive
O=[N+]([O-])c1ccc(C=NNc2ccc(S(=O)(=O)O)cc2)cc1
inactive
O=c1cc(-c2c(O)c3ccccc3n(Cc3ccccc3)c2=O)[nH][nH]1
inactive
CC(=O)NC(c1ccccc1)c1nc(-c2cccs2)cs1 (configuration not stated)
inactive

---

- study_system: Rap guanine nucleotide exchange factor 3 (Homo sapiens) (UniProt O95398)
- experiment_notes: Counterscreen qHTS for antagonist of cAMP-regulated guanine nucleotide exchange factor 3 (EPAC1) (AID 1645888);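 further: fluorescence loss as bound BODIPY-GDP is released from Rap1B; % of control where 0% means no effect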
- experimental_setup: Rap1B-BODIPY-GDP nucleotide exchange, fluorescence; series mostly up to 154 µM
Results filed as inconclusive are left out. The source made the active and inactive calls. Calls follow the shape of the dose curve; as a rule, active = well fitted inhibition curve with a large enough effect; inconclusive = small, poorly fitted or top-dose-only effect; inactive = no such curve, though single readings can be large or run the other way.
assay_endpoint: activity change, negative = inhibition

COc1ccccc1[C@]1(C)ON(c2ccccc2C(F)(F)F)C1=O
inactive
O=C(CSc1nnc(-c2ccco2)c(-c2ccco2)n1)c1ccccc1
inactive
CCCN1C(=O)c2[nH]nc(-c3ccc(F)cc3)c2C1c1ccc(O)c(OCC)c1 (stereo not drawn)
inactive
Cc1cc(/C=C2\C(=N)N3N=C(c4ccco4)SC3=NC2=O)c(C)n1Cc1ccccc1
inactive
CC(C)(C)C(=O)N1CCC2CC1c1cc(-c3ccc4c(c3)OCO4)ccc12 (stereo not drawn)
-12.7% [at 30.8 µM] (inactive)
CCOC(=O)C1=C(C)N=c2s/c(=C\c3cccn3C)c(=O)n2C1c1cccc(OC)c1OC (stereo not drawn)
-4.43% [at 30.8 µM] (inactive)
CC[n+]1ccc(/C=C/c2c[nH]c3ccccc23)cc1
inactive
CC(NC(=O)/C(C#N)=C/c1ccc(N2CCOCC2)cc1)c1ccccc1 (stereo not drawn)
inactive
O=C(O)C(c1ccccc1)N1C(=O)/C(=C/c2cccs2)SC1=S (stereo not drawn)
-23.4% [at 30.8 µM] (inactive)
Cc1cc(C)cc(-n2ccnc2SCC(=O)Nc2ccc3c(c2)OCO3)c1
inactive
O=c1cc(CSc2nc3ccccc3c(=O)[nH]2)c2ccc(O)cc2o1
inactive
Oc1ccc(NCc2ccc(OCc3ccccc3Cl)cc2)cc1
inactive
O=C1ON=C(c2ccccc2)/C1=C/c1ccc(-c2ccccc2[N+](=O)[O-])o1
inactive
Cc1cc(Nc2ccccc2)c2c([N+](=O)[O-])ccc(C)c2n1
inactive
CCC1SC2=NC(C)=C(C(=O)OC)C(c3cccs3)N2C1=O (stereo not drawn)
-9.77% [at 30.8 µM] (inactive)
COc1cnc(-c2ccccc2)c(-c2ccccc2)n1
-6.36% [at 30.8 µM] (inactive)
c1ccc(Oc2nc(-c3cccnc3)nc3ccccc23)cc1
inactive
CCOC(=O)C1CCc2c(ccc3ccccc23)N1CCC#N (stereo not drawn)
-15.2% [at 30.8 µM] (inactive)
CC(NC(=O)COc1ccccc1-c1ccccc1)c1ccccc1 (stereo not drawn)
inactive
CCOC(=O)C1=C(C)N=c2s/c(=C/c3ccc(OCC(=O)O)cc3)c(=O)n2C1c1ccc(F)cc1 (stereo not drawn)
inactive
COC(=O)c1ccc2nc(-c3ccc(C)cc3)c(Cc3ccsc3)n2c1
1.91% [at 30.8 µM] (inactive)
O=C(NNc1c2ccccc2nc2ccccc12)c1ccccc1O
inactive
CC(=O)Nc1ccc(Nc2c3c4c(cccc4n(C)c2=O)C(=O)c2ccccc2-3)cc1
inactive
COc1ccc(-n2c(C)cc(/C=C3\SC(=O)NC3=O)c2C)cc1
inactive
COC(=O)c1cc(Sc2c(Cl)cccc2Cl)ccn1
inactive
NC(=O)c1ccsc1NC(=O)CS(=O)(=O)c1ccc(F)cc1
inactive
COc1cccc(/C(O)=C/c2nc3ccc(C(=O)NCCc4cccc(C)c4)cc3[nH]c2=O)c1
inactive
CN1c2ccsc2/C(=N/Nc2ccccc2)CS1(=O)=O
inactive
Nc1c2c(=O)[nH]c(O)cc2nn1-c1ccccc1
inactive
CN(C)c1ccc(/C=C2\SC(=S)N(Nc3ncc(C(F)(F)F)cc3Cl)C2=O)cc1
inactive
Cc1ccc(Cn2ccnc2SCC(=O)Nc2ccc3c(c2)OCO3)cc1
inactive
CC1(C(=O)NS(=O)(=O)c2cccc(Cl)c2)CCN1C(=O)C1(c2ccc(Cl)cc2)CCC1 (stereo not drawn)
-18.6% [at 30.8 µM] (inactive)
CCCN(C(=O)COC(=O)COc1c(C)cccc1C)c1c(N)n(Cc2ccccc2)c(=O)[nH]c1=O
inactive
COc1ccccc1Nc1cc2cc(Br)ccc2c(=O)[nH]1
inactive
O=C(Cn1c(=O)c2ccccc2n(CC(=O)Nc2ccc(Cl)cc2)c1=O)NCCc1ccccc1
inactive
CCOC(=O)C1=C(N)OC2=C(C(=O)CCC2)C1c1sccc1C (stereo not drawn)
-19.9% [at 30.8 µM] (inactive)
COc1cc(/C=C/C(=O)c2ccc3c(c2)OCCO3)cc(Br)c1OCC(=O)N(C)C
inactive
CCN(CC)C(=O)c1ccc2c(c1)N(Cc1ccc(C(F)(F)F)cc1)C(=O)c1ccccc1S2
inactive
COC1OC(c2ccccc2)=C(c2cnc(N)nc2)c2ccc(F)cc21 (stereo not drawn)
-3.58% [at 30.8 µM] (inactive)
C=CCN(CC=C)Cc1cc(=O)oc2cc(C)cc(C)c12
-4% [at 30.8 µM] (inactive)
CC(C)=CCc1c(O)cc(O)c2c1OC(c1ccc(O)cc1)CC2=O (stereo not drawn)
inactive
O=C(O)CN1C(=O)/C(=C\c2cc(Br)ccc2OCc2ccc(Cl)cc2)SC1=S
inactive
O=[N+]([O-])c1cc(CN2CCN(c3cccc(C(F)(F)F)c3)CC2)c2cccnc2c1O
inactive
